In this section we review reported EC50 values for a set of binders.
# experimental.target: T1, Placenta Growth Factor (PlGF), human (human, UniProt P49763 21-149)
# T1 chain: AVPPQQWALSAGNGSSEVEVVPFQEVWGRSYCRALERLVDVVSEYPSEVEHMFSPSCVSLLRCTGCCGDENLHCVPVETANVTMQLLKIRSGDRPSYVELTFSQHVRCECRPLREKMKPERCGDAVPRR
# assay.details: ELISA
assay.endpoint: EC50 (nM)

[
  {
    "binder": "HC 5/SLC 15 (antibody) chain 1: GQGTLVTVSSASTKGQPVLHQPPAMSSALGTTIRLTCTLRNDHDIGVYSVYWYQQRPGHPPRFLLRYFSQSDKSQGPQVPPRFSGSKDVARNRGYLSISELQPEDEAMYYCAMGARSRCWPRGFQSKHNSVTHVFGSGTQLTVLSQPKATPSVTLFPPSSEELQANKATLVCLMNDFYPGILTVTWKADGTPITQGVEMTTPSKQSNNKYAASSYLSLTPEQWRSRRSYSCQVMHEGSTVEKTVAPAECS chain 2: MSWAPVLLMLFVYCTGCGPQPVLHQPPAMSSALGTTIRLTCTLRNDHDIGVYSVYWYQQRPGHPPRFLLRYFSQSDKSQGPQVPPRFSGSKDVARNRGYLSISVTHVFGSGTQLTVLSQPKATPSVTGGGGSQVQLVQ",
    "recorded.result": 0.049
  },
  {
    "binder": "HC 6/SLC 8 (antibody) chain 1: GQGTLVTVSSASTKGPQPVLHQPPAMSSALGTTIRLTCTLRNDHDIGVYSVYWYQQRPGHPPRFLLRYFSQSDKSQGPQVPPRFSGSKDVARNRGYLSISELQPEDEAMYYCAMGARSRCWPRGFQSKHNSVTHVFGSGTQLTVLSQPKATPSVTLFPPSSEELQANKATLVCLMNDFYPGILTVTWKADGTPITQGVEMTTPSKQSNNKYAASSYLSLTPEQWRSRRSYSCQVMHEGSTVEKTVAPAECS chain 2: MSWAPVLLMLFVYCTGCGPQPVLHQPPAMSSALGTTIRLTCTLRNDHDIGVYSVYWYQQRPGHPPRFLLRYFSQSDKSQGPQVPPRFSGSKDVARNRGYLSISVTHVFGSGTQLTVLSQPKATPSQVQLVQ",
    "recorded.result": 0.073
  },
  {
    "binder": "HC 10/SLC 15 (antibody) chain 1: GQGTLVTVSSASTKGPSVFPQPVLHQPPAMSSALGTTIRLTCTLRNDHDIGVYSVYWYQQRPGHPPRFLLRYFSQSDKSQGPQVPPRFSGSKDVARNRGYLSISELQPEDEAMYYCAMGARSRCWPRGFQSKHNSVTHVFGSGTQLTVLSQPKATPSVTLFPPSSEELQANKATLVCLMNDFYPGILTVTWKADGTPITQGVEMTTPSKQSNNKYAASSYLSLTPEQWRSRRSYSCQVMHEGSTVEKTVAPAECS chain 2: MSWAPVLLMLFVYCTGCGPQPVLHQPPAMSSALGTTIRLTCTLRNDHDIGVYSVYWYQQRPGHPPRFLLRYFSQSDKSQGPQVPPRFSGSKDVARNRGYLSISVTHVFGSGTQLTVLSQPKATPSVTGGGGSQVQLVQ",
    "recorded.result": 0.049
  },
  {
    "binder": "HC 4/SLC 5 (antibody) chain 1: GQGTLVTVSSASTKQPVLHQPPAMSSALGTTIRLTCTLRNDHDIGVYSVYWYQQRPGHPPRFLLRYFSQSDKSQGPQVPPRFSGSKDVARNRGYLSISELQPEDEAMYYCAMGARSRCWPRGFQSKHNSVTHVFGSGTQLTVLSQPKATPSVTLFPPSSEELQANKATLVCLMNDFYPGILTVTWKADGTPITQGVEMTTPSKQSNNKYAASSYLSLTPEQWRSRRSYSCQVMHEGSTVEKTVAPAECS chain 2: MSWAPVLLMLFVYCTGCGPQPVLHQPPAMSSALGTTIRLTCTLRNDHDIGVYSVYWYQQRPGHPPRFLLRYFSQSDKSQGPQVPPRFSGSKDVARNRGYLSISVTHVFGSGTQLTVLSQPKAQVQLVQ",
    "recorded.result": 0.282
  },
  {
    "binder": "HC 5/SLC 7 (antibody) chain 1: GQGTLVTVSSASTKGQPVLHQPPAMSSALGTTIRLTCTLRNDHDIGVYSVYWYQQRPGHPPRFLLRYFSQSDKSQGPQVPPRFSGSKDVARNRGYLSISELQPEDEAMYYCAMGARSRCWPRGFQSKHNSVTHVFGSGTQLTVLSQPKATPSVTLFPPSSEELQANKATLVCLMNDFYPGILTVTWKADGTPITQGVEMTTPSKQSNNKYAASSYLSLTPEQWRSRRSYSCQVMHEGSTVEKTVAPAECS chain 2: MSWAPVLLMLFVYCTGCGPQPVLHQPPAMSSALGTTIRLTCTLRNDHDIGVYSVYWYQQRPGHPPRFLLRYFSQSDKSQGPQVPPRFSGSKDVARNRGYLSISVTHVFGSGTQLTVLSQPKATPQVQLVQ",
    "recorded.result": 0.129
  },
  {
    "binder": "HC 2/SLC 8 (antibody) chain 1: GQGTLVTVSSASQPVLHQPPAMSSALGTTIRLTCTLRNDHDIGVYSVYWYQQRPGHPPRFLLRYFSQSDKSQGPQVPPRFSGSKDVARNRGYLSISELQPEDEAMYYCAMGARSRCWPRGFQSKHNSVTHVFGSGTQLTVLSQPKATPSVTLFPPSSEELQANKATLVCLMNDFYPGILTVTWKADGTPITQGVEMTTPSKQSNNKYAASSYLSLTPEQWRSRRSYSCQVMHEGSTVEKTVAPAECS chain 2: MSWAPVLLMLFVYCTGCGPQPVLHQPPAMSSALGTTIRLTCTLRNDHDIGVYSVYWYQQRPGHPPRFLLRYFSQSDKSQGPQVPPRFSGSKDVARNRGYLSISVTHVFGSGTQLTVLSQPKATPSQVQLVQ",
    "recorded.result": 0.119
  },
  {
    "binder": "HC 5/SLC 2 (antibody) chain 1: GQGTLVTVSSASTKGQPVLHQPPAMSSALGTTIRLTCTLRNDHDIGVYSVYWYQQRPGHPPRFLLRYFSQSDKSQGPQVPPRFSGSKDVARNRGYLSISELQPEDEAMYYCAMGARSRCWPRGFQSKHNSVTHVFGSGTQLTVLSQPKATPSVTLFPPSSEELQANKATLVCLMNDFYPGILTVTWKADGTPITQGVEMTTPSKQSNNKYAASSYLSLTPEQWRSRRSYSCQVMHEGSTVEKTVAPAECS chain 2: MSWAPVLLMLFVYCTGCGPQPVLHQPPAMSSALGTTIRLTCTLRNDHDIGVYSVYWYQQRPGHPPRFLLRYFSQSDKSQGPQVPPRFSGSKDVARNRGYLSISVTHVFGSGTQLTVLSQQVQLVQ",
    "recorded.result": 0.197
  }
]
